Entries annotated with measured melting point
Numeric answer only, unit °C assumed.

Cn1ncc2c(c1=O)SCCNC2C(=O)Cc1ccccc1 (stereo not given) | 133

Field: next compound
Q: What does the data say about its melting point? Entry: CCCCC(CC)COc1ccc(N2C(C)=CC(=C=C3C(C#N)C(=C(C#N)C#N)OC3(C)C)C=C2C)cc1 (stereo not given)
A: 237

====

Entries annotated with measured melting point

Below are worked cases with known answers.
CC(=O)Oc1ccccc1C1SC[C@@H](C(=O)O)N1C(=O)CCSC(C)=O (stereo partly drawn) | 144 to 145 °C
N#Cc1ccc(NC2CCN(Cc3cc(F)cc(F)c3)CC2)nn1 | 188 °C
COCC1COc2cc3ncnc(Nc4cc(C)cc(C)c4)c3cc2O1 (stereo not drawn) | 268 to 270 °C
CCOC(Cc1ccc(NCc2ccc(O)cc2)cc1)C(=O)OC (stereo not drawn) | 109 to 110 °C
COc1c(C)c2c(c(O)c1C/C=C(\C)C(CC(=O)O)OC)C(=O)OC2 (stereo not drawn) | 133 to 135 °C
COCc1cc(C(C)(C)C)cc(C(C)(C)C)c1O | 36 to 39 °C

Q: What does the data say about its melting point? Entry: CCOC(=O)C1=C(C)Nc2ccnn2C1c1ccccc1C(F)(F)F (stereo not drawn)
A: 182 to 183 °C

Q: What does the data say about its melting point? Entry: O=C1OCC(c2ccccc2)N1CC1C2CCC(O2)C1CO (stereo not drawn)
A: 131 to 133 °C

Q: What does the data say about its melting point? Entry: "CCOC(OCC)C(=O)Nc1ccc(Cl)cc1N"
A: 89 to 90 °C

Q: What does the data say about its melting point? Entry: "CCOc1cc2c(c3c1OC(C)(C)C3)C(c1ccccc1)=[N+]([O-])C(C)(C)C2"
A: 125 to 126 °C

Q: What does the data say about its melting point? Entry: "O=C(Cc1c(Br)cnc2c(NC(=O)c3c(Cl)cccc3Cl)cccc12)NCc1ccccn1"
A: 197 to 199 °C

Q: What does the data say about its melting point? Entry: "O=Cc1ccccc1OC(=O)C(=O)Oc1ccccc1C=O"
A: 134 to 135 °C

Q: What does the data say about its melting point? Entry: "COc1cc(=O)c(-c2ccnn2-c2ccccc2)nn1-c1cccc(C(F)(F)F)c1"
A: 139 to 141 °C
